Measured pIC50 values are reported for all entries that follow.
experimental_target: Nitric oxide synthase 3 (Homo sapiens, UniProt P29474)
Sequence (P29474 whole entry): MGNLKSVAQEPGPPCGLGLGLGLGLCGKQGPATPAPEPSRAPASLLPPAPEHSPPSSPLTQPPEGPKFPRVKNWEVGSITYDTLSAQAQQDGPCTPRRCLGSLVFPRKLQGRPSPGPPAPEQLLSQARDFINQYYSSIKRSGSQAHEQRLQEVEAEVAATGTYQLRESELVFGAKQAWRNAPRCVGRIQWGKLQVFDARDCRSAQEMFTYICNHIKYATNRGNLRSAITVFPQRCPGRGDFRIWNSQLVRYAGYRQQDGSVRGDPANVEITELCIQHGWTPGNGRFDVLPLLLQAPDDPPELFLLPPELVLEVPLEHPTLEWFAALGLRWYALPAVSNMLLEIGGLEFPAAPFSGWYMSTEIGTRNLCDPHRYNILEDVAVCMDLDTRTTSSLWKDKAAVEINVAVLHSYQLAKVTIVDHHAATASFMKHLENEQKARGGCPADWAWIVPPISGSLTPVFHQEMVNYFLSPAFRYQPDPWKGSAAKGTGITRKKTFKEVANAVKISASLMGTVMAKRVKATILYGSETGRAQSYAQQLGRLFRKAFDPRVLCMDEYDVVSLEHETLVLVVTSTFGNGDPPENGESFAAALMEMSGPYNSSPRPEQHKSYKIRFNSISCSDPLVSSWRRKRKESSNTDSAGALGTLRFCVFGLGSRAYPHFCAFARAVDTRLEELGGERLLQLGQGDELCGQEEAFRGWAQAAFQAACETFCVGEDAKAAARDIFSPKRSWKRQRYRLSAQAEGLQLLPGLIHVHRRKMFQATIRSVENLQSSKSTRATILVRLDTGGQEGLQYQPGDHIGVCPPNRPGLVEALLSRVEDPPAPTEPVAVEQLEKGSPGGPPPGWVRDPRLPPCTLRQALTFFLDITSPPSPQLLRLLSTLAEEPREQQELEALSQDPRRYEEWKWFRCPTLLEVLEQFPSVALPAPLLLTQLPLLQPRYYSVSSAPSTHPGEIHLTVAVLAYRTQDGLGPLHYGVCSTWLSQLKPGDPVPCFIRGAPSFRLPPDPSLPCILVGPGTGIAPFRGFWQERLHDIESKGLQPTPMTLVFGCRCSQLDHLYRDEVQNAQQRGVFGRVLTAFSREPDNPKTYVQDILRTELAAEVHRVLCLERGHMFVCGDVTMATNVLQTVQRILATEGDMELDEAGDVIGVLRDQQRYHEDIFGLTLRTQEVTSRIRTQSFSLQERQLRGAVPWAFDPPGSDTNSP
assay_procedure: Inhibition of human recombinant eNOS by microtiter plate assay
The read-out pIC50 is expressed as -log10 of concentration in moles per litre.

# annotated cases, reported pIC50 shown
smiles_notation: N=C(N)[C@@H]1CCN1
measure: pIC50
measured_value: 5.62
//
smiles_notation: N=C(N)[C@H]1CCCN1
measure: pIC50
measured_value: 4.82

Kindly review the next compound as well.
## Task Sample N=C(N)[C@H]1CCN1 — what was its pIC50?
## Result 6.60

* * *

Measured pIC50 values are reported for all entries that follow.
experimental_target: Nitric oxide synthase 1 (Homo sapiens, UniProt P29475)
Sequence (P29475 whole entry): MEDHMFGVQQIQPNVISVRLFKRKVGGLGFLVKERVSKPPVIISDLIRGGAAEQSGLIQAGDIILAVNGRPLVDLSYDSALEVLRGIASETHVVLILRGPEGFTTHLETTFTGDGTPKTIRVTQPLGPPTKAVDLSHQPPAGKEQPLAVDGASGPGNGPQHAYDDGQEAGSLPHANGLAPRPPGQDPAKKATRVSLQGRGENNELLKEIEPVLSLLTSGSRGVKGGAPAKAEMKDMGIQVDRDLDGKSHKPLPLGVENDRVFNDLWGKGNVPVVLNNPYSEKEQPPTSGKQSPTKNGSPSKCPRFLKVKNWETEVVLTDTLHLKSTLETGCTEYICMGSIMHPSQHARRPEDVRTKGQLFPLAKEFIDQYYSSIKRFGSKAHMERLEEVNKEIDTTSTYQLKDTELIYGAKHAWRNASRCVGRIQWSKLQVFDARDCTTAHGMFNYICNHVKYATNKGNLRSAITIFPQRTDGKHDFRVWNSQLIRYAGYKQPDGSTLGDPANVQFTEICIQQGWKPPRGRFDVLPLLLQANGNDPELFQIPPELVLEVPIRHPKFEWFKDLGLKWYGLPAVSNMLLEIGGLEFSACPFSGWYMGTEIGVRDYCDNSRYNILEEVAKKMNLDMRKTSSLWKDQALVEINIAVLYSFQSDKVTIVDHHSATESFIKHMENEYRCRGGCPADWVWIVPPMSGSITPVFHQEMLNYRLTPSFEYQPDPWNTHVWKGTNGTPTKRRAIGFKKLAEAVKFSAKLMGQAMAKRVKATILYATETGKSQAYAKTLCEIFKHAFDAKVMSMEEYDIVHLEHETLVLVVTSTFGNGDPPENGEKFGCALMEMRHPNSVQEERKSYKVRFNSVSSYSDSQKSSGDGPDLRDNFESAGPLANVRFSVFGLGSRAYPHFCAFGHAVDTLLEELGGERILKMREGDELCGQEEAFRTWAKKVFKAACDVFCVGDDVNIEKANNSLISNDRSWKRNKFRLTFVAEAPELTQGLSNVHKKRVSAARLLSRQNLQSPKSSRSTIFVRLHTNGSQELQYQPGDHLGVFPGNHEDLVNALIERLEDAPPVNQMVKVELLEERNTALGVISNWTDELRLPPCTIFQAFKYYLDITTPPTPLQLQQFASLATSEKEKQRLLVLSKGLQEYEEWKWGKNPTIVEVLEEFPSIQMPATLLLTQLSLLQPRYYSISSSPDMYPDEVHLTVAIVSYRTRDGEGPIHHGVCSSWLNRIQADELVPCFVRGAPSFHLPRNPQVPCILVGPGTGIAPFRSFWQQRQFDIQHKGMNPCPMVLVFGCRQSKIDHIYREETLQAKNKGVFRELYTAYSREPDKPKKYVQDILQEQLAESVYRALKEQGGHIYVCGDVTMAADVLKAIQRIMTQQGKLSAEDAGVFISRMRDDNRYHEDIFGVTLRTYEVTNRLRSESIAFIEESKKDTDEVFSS
assay_procedure: Inhibition of human recombinant nNOS by microtiter plate assay
The read-out pIC50 is expressed as -log10 of concentration in moles per litre.

smiles_notation: N=C(N)[C@@H]1CCN1
pIC50: 5.77

## Task Sample N=C(N)[C@H]1CCN1 — what was its pIC50?
## Result 6.59

## Task Sample N=C(N)[C@H]1CCCN1 — what was its pIC50?
## Result 4.85

* * *

Measured IC50 values are reported for all entries that follow.
experimental_target: Nitric oxide synthase, inducible (Homo sapiens, UniProt P35228)
Sequence (P35228 whole entry): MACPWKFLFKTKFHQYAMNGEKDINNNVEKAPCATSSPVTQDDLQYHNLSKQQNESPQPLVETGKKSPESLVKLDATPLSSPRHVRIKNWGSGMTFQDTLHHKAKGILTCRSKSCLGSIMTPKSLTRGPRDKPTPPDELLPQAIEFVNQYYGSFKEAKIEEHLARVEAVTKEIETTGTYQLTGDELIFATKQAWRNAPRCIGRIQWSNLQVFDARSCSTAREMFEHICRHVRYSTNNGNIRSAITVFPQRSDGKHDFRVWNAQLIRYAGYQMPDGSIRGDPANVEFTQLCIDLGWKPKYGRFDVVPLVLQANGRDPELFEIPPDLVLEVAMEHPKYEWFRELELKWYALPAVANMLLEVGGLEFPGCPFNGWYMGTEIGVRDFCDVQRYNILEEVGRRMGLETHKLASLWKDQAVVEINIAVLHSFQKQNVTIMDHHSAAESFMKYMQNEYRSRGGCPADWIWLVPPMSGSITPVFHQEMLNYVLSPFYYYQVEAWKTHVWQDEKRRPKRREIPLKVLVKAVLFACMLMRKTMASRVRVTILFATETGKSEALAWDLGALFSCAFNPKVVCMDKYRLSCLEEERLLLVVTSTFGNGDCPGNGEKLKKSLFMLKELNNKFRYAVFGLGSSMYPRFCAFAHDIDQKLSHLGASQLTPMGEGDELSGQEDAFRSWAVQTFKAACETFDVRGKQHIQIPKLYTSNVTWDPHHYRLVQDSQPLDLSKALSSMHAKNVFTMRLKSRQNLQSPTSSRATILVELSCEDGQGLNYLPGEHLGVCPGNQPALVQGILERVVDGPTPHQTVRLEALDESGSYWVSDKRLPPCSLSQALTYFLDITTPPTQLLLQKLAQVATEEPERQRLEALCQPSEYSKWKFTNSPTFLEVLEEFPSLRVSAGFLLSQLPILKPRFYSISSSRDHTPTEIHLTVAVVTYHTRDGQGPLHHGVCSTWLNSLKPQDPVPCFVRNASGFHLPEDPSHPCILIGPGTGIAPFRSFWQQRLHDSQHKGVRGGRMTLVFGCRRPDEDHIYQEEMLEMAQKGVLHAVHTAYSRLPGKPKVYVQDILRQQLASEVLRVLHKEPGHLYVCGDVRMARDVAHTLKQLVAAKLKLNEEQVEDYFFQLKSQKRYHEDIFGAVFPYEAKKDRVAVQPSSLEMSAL
assay_procedure: Inhibition of human recombinant iNOS by microtiter plate assay

# annotated cases, reported IC50 shown
compound: N=C(N)C1CCC1 [CYCLOBUTANECARBOXIMIDAMIDE]
experimental_target: Nitric oxide synthase, inducible (Homo sapiens, UniProt P35228)
measured_value: 0.38 µM

compound: [H]/N=C(/N)C1CCCC1 [CYCLOPENTANECARBOXIMIDAMIDE]
experimental_target: Nitric oxide synthase, inducible (Homo sapiens, UniProt P35228)
measured_value: 4.4 µM

compound: N=C(N)C1CCCN1 (stereo not given)
experimental_target: Nitric oxide synthase, inducible (Homo sapiens, UniProt P35228)
measured_value: 0.7 µM

## Task Sample N=C(N)C1CCCNC1 (stereo not given) — what was its IC50?
## Result 51 µM

## Task Sample N=C(N)C1C=CCN1 (stereo not given) — what was its IC50?
## Result 0.18 µM

* * *

experimental_target: Nitric oxide synthase, inducible (Homo sapiens, UniProt P35228)
assay_procedure: Inhibition of human recombinant iNOS by microtiter plate assay
measure: pIC50
The read-out pIC50 is expressed as -log10 of concentration in moles per litre.

# annotated cases, reported pIC50 shown
compound: N=C(N)[C@@H]1CCN1
experimental_target: Nitric oxide synthase, inducible (Homo sapiens, UniProt P35228)
measure: pIC50
measured_value: 6.70
--
compound: N=C(N)[C@H]1CCN1
experimental_target: Nitric oxide synthase, inducible (Homo sapiens, UniProt P35228)
measure: pIC50
measured_value: 7.52
--
compound: N=C(N)C1CNC1
experimental_target: Nitric oxide synthase, inducible (Homo sapiens, UniProt P35228)
measure: pIC50
measured_value: 4.85
--
compound: N=C(N)[C@H]1CCCN1
experimental_target: Nitric oxide synthase, inducible (Homo sapiens, UniProt P35228)
measure: pIC50
measured_value: 6.92
--
compound: N=C(N)C1CCCO1 (stereo not given)
experimental_target: Nitric oxide synthase, inducible (Homo sapiens, UniProt P35228)
measure: pIC50
measured_value: 5.05

## Task Value wanted: pIC50 (Nitric oxide synthase, inducible (Homo sapiens, UniProt P35228)) of entry N=C(N)C1CCCS1 (stereo not given)
## Result 5.28

## Task Value wanted: pIC50 (Nitric oxide synthase, inducible (Homo sapiens, UniProt P35228)) of entry N=C(N)[C@@H]1CCCN1
## Result 5.03

## Task Value wanted: pIC50 (Nitric oxide synthase, inducible (Homo sapiens, UniProt P35228)) of entry N=C(N)C1CC1 [CYCLOPROPANECARBOXIMIDAMIDE]
## Result 6.10

## Task Value wanted: pIC50 (Nitric oxide synthase, inducible (Homo sapiens, UniProt P35228)) of entry N=C(N)C1CCNCC1
## Result 4.24
